Numbers sourced from paper PMC10044120.

Molecular target: USP8 (Homo sapiens, UniProt P40818)
Sequence (P40818 777-1109): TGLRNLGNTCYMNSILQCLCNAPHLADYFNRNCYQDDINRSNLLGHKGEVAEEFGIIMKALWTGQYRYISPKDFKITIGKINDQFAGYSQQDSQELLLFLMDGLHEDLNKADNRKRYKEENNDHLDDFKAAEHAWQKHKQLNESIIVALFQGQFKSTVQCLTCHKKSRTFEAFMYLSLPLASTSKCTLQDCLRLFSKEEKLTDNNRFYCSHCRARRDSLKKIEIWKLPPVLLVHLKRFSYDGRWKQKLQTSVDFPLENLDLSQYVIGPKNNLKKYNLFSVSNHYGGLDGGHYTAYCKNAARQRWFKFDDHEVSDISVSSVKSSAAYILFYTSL
measureName: IC50

- molecule: "C[C@@H](NC(=O)c1ccccc1CCC(=O)NNC(=O)CCl)c1cccc2ccccc12 [Compound 9]"
  IC50: "> 30 µM"
- molecule: "COC(=O)/C=C/C(=O)NNC(=O)CCc1ccccc1C(=O)N[C@H](C)c1cccc2ccccc12 [Compound 7]"
  IC50: "> 30 µM"

// switching to the query molecule
Fill in: IC50 on USP8 (Homo sapiens, UniProt P40818), entry CC(=O)Nc1ccc(C)c(C(=O)N[C@H](C)c2cccc3ccccc23)c1 [Compound 15]
> 30 µM

====

Test: in vitro
Settings: human, Percent Cytotoxicity (Neutral Red), Caco-2; SARS2-740 (USA-WA1/2020 set); 0.01 µM
measureName: cytotoxicity at 0.01 µM (%)
// units = %; emit number, no label

Tell me cytotoxicity at 0.01 µM reported for COC(=O)/C=C/C(=O)NNC(=O)CCc1ccccc1C(=O)N[C@H](C)c1cccc2ccccc12
1.6

====

Assay: in vitro
Settings: human
measureName: cytotoxicity at 0.01 µM (%)
// units = %; emit number, no label

Tell me cytotoxicity at 0.01 µM reported for COC(=O)/C=C/C(=O)NNC(=O)CCc1ccccc1C(=O)N[C@H](C)c1cccc2ccccc12
8.4

====

Tested on: Vero E6 cells
Conditions: Vero E6, 2 μM CP-100356, Delta rows
measureName: CC50

Tell me CC50 reported for O=c1nc(NO)ccn1[C@@H]1O[C@H](CO)[C@@H](O)[C@H]1O
> 100 µM

Tell me CC50 reported for COC(=O)/C=C/C(=O)NNC(=O)CCc1ccccc1C(=O)N[C@H](C)c1cccc2ccccc12
> 10 µM

====

Test system: SARS-CoV-2 Delta (B.1.617.2)
Assay: CPE assay, neutral red, Vero E6 cells with 2 μM CP-100356, Delta
Format: cell-based
Settings: Severe acute respiratory syndrome coronavirus 2, Vero C1008
measureName: EC50 (nM)
// units = nM; emit number, no label

Tell me EC50 reported for COC(=O)/C=C/C(=O)NNC(=O)CCc1ccccc1C(=O)N[C@H](C)c1cccc2ccccc12 [Compound 7]
290

====

Target: PLpro from SARS-CoV-2 (Severe acute respiratory syndrome coronavirus 2, UniProt P0DTD1)
Assay: biochemical
Assay type: biochemical
Conditions: after 30-min incubation; purified PLpro, Z-RLRGG-AMC substrate
pIC50: −log10 of the molar value.
If the reported pIC50 equals or exceeds 5, assign fulfilled. If not, assign not fulfilled.

# count of solved cases: 4
- compoundStructureString: "C[C@@H](NC(=O)c1ccccc1CCC(=O)NNC(=O)CCl)c1cccc2ccccc12"
  assignedCategory: "fulfilled"
- compoundStructureString: "C#CC(=O)NNC(=O)CCc1ccccc1C(=O)N[C@H](C)c1cccc2ccccc12"
  assignedCategory: "fulfilled"
- compoundStructureString: "CC(=O)Nc1ccc(C)c(C(=O)N[C@H](C)c2cccc3ccccc23)c1"
  assignedCategory: "fulfilled"
- compoundStructureString: "C[C@@H](NC(=O)c1ccccc1CCC(=O)NNC(=O)C(C#N)=CC1CC1)c1cccc2ccccc12"
  assignedCategory: "not fulfilled"

Proceed to the following item.
Could you tell me if the measured pIC50 of C[C@@H](NC(=O)c1ccccc1CCC(=O)NN)c1cccc2ccccc12 reaches 5 or more?
not fulfilled

====

Target: USP2 (Homo sapiens, UniProt O75604)
Sequence (O75604 267-599): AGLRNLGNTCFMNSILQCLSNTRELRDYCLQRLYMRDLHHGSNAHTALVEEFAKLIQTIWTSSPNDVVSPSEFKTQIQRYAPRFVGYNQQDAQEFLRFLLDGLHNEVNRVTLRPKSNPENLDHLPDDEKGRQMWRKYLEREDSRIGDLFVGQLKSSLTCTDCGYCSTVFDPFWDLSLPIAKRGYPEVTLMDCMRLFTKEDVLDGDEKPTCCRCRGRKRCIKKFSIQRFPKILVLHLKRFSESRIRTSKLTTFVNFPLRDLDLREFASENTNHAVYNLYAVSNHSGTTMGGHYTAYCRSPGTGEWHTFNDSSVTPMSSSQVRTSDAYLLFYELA
pIC50: −log10 of the molar value.
Listing of recorded pIC50 by entry.

- compoundStructureString: "COC(=O)/C=C/C(=O)NNC(=O)CCc1ccccc1C(=O)N[C@H](C)c1cccc2ccccc12"
  value: "< 4.52"
- compoundStructureString: "CC(=O)Nc1ccc(C)c(C(=O)N[C@H](C)c2cccc3ccccc23)c1"
  value: "< 4.52"

// switching to the query compound
Fill in: pIC50 on USP2 (Homo sapiens, UniProt O75604), entry C[C@@H](NC(=O)c1ccccc1CCC(=O)NNC(=O)CCl)c1cccc2ccccc12
< 4.52

====

Test system: Vero E6 cells
Conditions: African green monkey, 48 h, 16.65 µM
measureName: cytotoxicity, %cell viability (%)
// units = %; emit number, no label

- compoundStructureString: "C[C@@H](NC(=O)c1ccccc1CCC(=O)NN)c1cccc2ccccc12"
  unitsText: "%"
  value: 89.16
- compoundStructureString: "Cc1ccccc1C(=O)N[C@H](C)c1cccc2ccccc12"
  unitsText: "%"
  value: 92.38
- compoundStructureString: "COC(=O)CCc1ccccc1C(=O)N[C@H](C)c1cccc2ccccc12"
  unitsText: "%"
  value: 90.64

// switching to the query molecule
Fill in: cytotoxicity, %cell viability on Vero E6 cells, entry C[C@@H](NC(=O)c1ccccc1CCC(=O)NNC(=O)CCl)c1cccc2ccccc12
94.042

====

Assay: Metabolic stability in rat liver microsomes
Conditions: Sprague-Dawley
measureName: microsomal CLint (µL/min/mg)
// units = µL/min/mg; emit number, no label

Here's what some known entries look like.
- molecule: "Cc1ccccc1C(=O)N[C@H](C)c1cccc2ccccc12 [Compound 14]"
  value: 330
- molecule: "C[C@@H](NC(=O)c1ccccc1CCC(=O)NNC(=O)CCl)c1cccc2ccccc12 [Compound 9]"
  value: 515

// switching to the query molecule
Tell me microsomal CLint reported for COC(=O)/C=C/C(=O)NNC(=O)CCc1ccccc1C(=O)N[C@H](C)c1cccc2ccccc12 [Compound 7]
151

====

Listing of recorded viability at 48 h, 16.67 µM by entry.
Experiment: in vitro
Conditions: African green monkey, cytotoxicity, %cell viability
// units = %; emit number, no label

Here's what some known entries look like.
- compound: "C[C@@H](NC(=O)c1ccccc1CCC(=O)NNC(=O)CC#N)c1cccc2ccccc12 [Compound 11]"
  viability at 48 h, 16.67 µM / %: 88.6
- compound: "CC(=O)Nc1ccc(CCC(=O)NNC(=O)CCl)c(C(=O)N[C@H](C)c2cccc3ccccc23)c1 [Compound 10]"
  viability at 48 h, 16.67 µM / %: 81.5
- compound: "CC(=O)Nc1ccc(C)c(C(=O)N[C@H](C)c2cccc3ccccc23)c1 [Compound 15]"
  viability at 48 h, 16.67 µM / %: 81.3
- compound: "C[C@@H](NC(=O)c1ccccc1CCC(=O)NNC(=O)C(C#N)=CC1CC1)c1cccc2ccccc12 [Compound 13]"
  viability at 48 h, 16.67 µM / %: 0.88
- compound: "COC(=O)/C=C/C(=O)NNC(=O)CCc1ccc(NC(C)=O)cc1C(=O)N[C@H](C)c1cccc2ccccc12 [Compound 8]"
  viability at 48 h, 16.67 µM / %: 82.6

// switching to the query compound
Tell me viability at 48 h, 16.67 µM reported for C#CC(=O)NNC(=O)CCc1ccccc1C(=O)N[C@H](C)c1cccc2ccccc12 [Compound 12]
0.57

====

System: Caco-2 cells
Conditions: Caco-2, Delta rows
Listing of recorded CC50 by entry.

- compoundStructureString: "COC(=O)/C=C/C(=O)NNC(=O)CCc1ccccc1C(=O)N[C@H](C)c1cccc2ccccc12"
  value: "> 10 µM"

// switching to the query compound
Tell me CC50 reported for O=c1nc(NO)ccn1[C@@H]1O[C@H](CO)[C@@H](O)[C@H]1O
> 100 µM

====

Test: in vitro
Conditions: African green monkey, cytotoxicity, %cell viability
measureName: viability at 16.65 µM

Tell me viability at 16.65 µM reported for Cc1ccc(N)cc1C(=O)N[C@H](C)c1cccc2ccccc12 [GRL0617, reference compound]
80.3%

====

Assay: in vitro
Details: human, Percent Cytotoxicity (Neutral Red), Caco-2; SARS2-740 (Delta set); 0.1 µM
measureName: cytotoxicity at 0.1 µM (%)
// units = %; emit number, no label

Tell me cytotoxicity at 0.1 µM reported for COC(=O)/C=C/C(=O)NNC(=O)CCc1ccccc1C(=O)N[C@H](C)c1cccc2ccccc12 [Compound 7]
0

====

Listing of recorded half-life by entry.
Assay: Metabolic stability in human liver microsomes
// units = min; emit number, no label

Here's what some known entries look like.
- compoundStructureString: "COC(=O)/C=C/C(=O)NNC(=O)CCc1ccccc1C(=O)N[C@H](C)c1cccc2ccccc12"
  unitsText: "min"
  half-life: 50
- compoundStructureString: "C[C@@H](NC(=O)c1ccccc1CCC(=O)NNC(=O)CCl)c1cccc2ccccc12"
  unitsText: "min"
  half-life: 7

// switching to the query compound
Tell me half-life reported for Cc1ccccc1C(=O)N[C@H](C)c1cccc2ccccc12
41

====

Assay: Cytotoxicity in uninfected Vero E6 cells, CellTiter-Glo
Conditions: African green monkey, % cell viability, cytotoxicity, 2.08 uM
measureName: viability at 48 h, 2.08 µM (%)
// units = %; emit number, no label

Tell me viability at 48 h, 2.08 µM reported for COC(=O)/C=C/C(=O)NNC(=O)CCc1ccccc1C(=O)N[C@H](C)c1cccc2ccccc12
100
